- measurementDescription: in vitro
- statedConditions: African green monkey, CC50
Quick reference for CC50 among some compounds

compound: C[C@@H]1CN(C(=O)C23CC4CC(C)(C2)CC(c2ccccc2)(C4)C3)C[C@H](C)N1 (some centres unmarked)
sign: =
CC50 [µM]: 3.9
//
compound: O=C(N1CCC(NCc2ccccc2)CC1)C12CC3CC(C1)CC(c1ccccc1)(C3)C2
sign: =
CC50 [µM]: 10
//
compound: O=C(N1CCC2(CCNC2)C1)C12CC3CC(C1)CC(c1ccccc1)(C3)C2 (centres unmarked)
sign: >
CC50 [µM]: 10
//
compound: CN1CCN(C[C@H](O)COc2ccc(C34CC5CC(CC(C5)C3)C4)cc2)CC1
sign: =
CC50 [µM]: 3.5
//
compound: COC(=O)c1ccc(COc2ccccc2CN2CCN(C(=O)CNC(=O)CC34CC5CC(C3)CC(c3ccccc3)(C5)C4)CC2)cc1
sign: >
CC50 [µM]: 3
//
compound: CC1CCN(C[C@@H](O)COCCC23CC4CC(C2)CC(c2ccccc2)(C4)C3)CC1
sign: =
CC50 [µM]: 3.6
//
compound: CN1CC(NC(=O)C23CC4CC(C)(C2)CC(c2ccccc2)(C4)C3)C1 (centres unmarked)
sign: =
CC50 [µM]: 13.9
//
compound: CC1CNCCC1NC(=O)C12CC3CC(C)(C1)CC(c1ccccc1)(C3)C2 (centres unmarked)
sign: =
CC50 [µM]: 7.2
